- target-desc: T1, EGFRvIII receptor in NR6 M cells (Homo sapiens, UniProt P00533, DELINS30-297G)
- T1 construct: NR6 M cells stably expressing full length EGFRvIII; expressed in transfected cells; host or cells: NR6 cells (NR6 M)
- test-method-notes: Internalization of EGFRvIII receptor by recombinant mAbs (FACS)
- Format: cell-based
- stated-conditions: 0.25 μg/ml antibody, 1 hr
value-kind: FACS Geometric mean With glutathione 4° C.
The reply should be a number, written without any unit.

Reported FACS Geometric mean With glutathione 4° C. ( 095: XenoMax derived anti-EGFRvIII antibody, SEQ ID NO: 7/23 (antibody, listed as Homo sapiens, V domains shown) VH: QVQLQESGPFLVKPSQTLSLTCTVSGGSISSGGYYWSWIRQHPGKGLEWIGFIYYRGNTYYNPSLKSRVTISVDTSKNQFSLKLSSVTAADTAVYYCARDGYCSRTGCYGGWFDPWGQGTLVTVSP VL: DIVMTQTPLSSPVTLGQPASISCRSSQSLIHTDGNIYLSWLQQRPGQPPRLLIYKISNRFSGVPDRFSGSGAGTDFTLKISRVEAEDVGVYYCMQGTQFPITFGQGTRLEIK ) = 5.13

Entry source: patent US20140314667A1
